The reported measurements were obtained from PubChem BioAssay (NCI).

Can you tell me TGI for the items I'm about to list?
System: EKVX NSCLC
test.protocol: NCI tumour cell line growth inhibition, 48 h

input: Find the measured TGI of CC1=CN(c2ccccc2)S2=C1c1sc3c(c1N2c1ccc(Br)cc1)CCCC3 (stereo unspecified) and report it.
output: > 100 µM

input: Fill in reported TGI for this entry: CCOc1ccccc1NC(=O)CC1Sc2ccccc2NC1=O (stereo unspecified)
output: > 100 µM

input: Determine from records and report TGI for O=C(CCCn1cnc([N+](=O)[O-])n1)NCCCn1ccnc1[N+](=O)[O-]
output: > 100 µM

input: Consider the compound O=C(O/N=C1/CCCC/C1=C\c1ccccc1)c1ccc(Cl)c(Cl)c1 . State its measured TGI.
output: > 100 µM

input: Give the reported value of TGI for this record: Clc1ccc(CCC(Cn2ccnc2)Sc2c(Cl)cccc2Cl)cc1 (stereo unspecified)
output: 17 µM

input: Please report the measured TGI for COC(=O)CCCC(=O)NC1=C(Nc2ccc(OC)cc2)C(=O)c2ccccc2C1=O
output: 51.3 µM
